TEST_NAME: self-splicing fitness, log relative to wild type (ln ratio); higher = more splicing; Tetrahymena group I intron in knt gene, E. coli kanamycin selection, DiMSum; sequences stand for … in CUCUCU…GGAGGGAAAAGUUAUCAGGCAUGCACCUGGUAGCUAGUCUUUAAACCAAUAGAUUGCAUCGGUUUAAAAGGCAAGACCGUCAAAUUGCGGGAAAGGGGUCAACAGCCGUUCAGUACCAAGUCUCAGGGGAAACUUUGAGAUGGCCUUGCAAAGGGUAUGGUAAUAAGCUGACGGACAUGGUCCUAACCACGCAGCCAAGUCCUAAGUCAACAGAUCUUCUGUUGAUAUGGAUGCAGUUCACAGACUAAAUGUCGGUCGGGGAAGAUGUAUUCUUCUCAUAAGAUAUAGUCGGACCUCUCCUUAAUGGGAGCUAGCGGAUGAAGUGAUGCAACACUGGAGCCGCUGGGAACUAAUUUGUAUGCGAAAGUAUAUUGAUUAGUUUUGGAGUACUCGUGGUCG;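 further: selection with 25 µg/mL kanamycin versus none on LB agar overnight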
CONDITION_DETAILS: 30 °C
ASSAY_ENDPOINT: self-splicing fitness (ln)

Consider the following illustrative entries.
UUAAAGCAAUAUUACGUCGU :: -1.76
CUUCAGCAAUAUUACGUCUC :: -3.17
AGCUAGCAAUAUUACGCUAC :: -2.68
AAACAGCAAUAUUACGAGAU :: -3.64

Returns the measured self-splicing fitness (ln) for the input sequence. Input: AUCAAGCAAUAUUACGACGC
-0.837

Returns the measured self-splicing fitness (ln) for the input sequence. Input: CCCCAGCAAUAUUACGGAUU
-4.3

Returns the measured self-splicing fitness (ln) for the input sequence. Input: CGCCAGCAAUAUUACGCAGU
-4.04

Returns the measured self-splicing fitness (ln) for the input sequence. Input: GAUUAGCAAUAUUACGUGAA
-3.07

Returns the measured self-splicing fitness (ln) for the input sequence. Input: GGUAAGCAAUAUUACGAUGG
-3.83

Returns the measured self-splicing fitness (ln) for the input sequence. Input: GGGUAGCAAUAUUACGGUGU
-1.09
